# ASSAY_TARGET: Phospholipid hydroperoxide glutathione peroxidase GPX4 (Homo sapiens)
# EXPERIMENTAL_PROTOCOL: Primary qHTS Assay for Inhibitors of Recombinant Selenoprotein Glutathione Peroxidase 4 (GPX4) (AID 1845192); note: nearly all actives have a fitted effect of over 65% in size
# MEASUREMENT_CONDITIONS: recombinant GPX4, GR-coupled NADPH fluorescence, 15 min; series mostly up to 50 µM
Results filed as inconclusive are left out. Calls of active or inactive are those of the source. Calls come from the whole dose curve; as a rule, active = well fitted inhibition curve with a large enough effect; inconclusive = small, poorly fitted or top-dose-only effect; inactive = flat fitted curve, though single readings scatter.
VALUE_TYPE: Potency

Study these solved cases before continuing.
INSERT INTO assay_data (compound, obs_value) VALUES
  ('Cc1noc(C)c1-c1cc(O)cc(C(O)c2ccccc2)c1 (stereo not drawn)', 'inactive'),
  ('CNCCCC1(c2ccccc2)OC(C)(C)c2ccccc21 (stereo not drawn)', 'inactive'),
  ('C=C1C(=O)OC2C=C(C)CC/C=C(\CO)CC(O)C12 (stereo not drawn)', 'inactive'),
  ('CCOC(=O)C1(CCOc2ccccc2)CCN(Cc2ccc(O)c(Cl)c2)CC1', 'inactive'),
  ('OC(CN1CCCCC1)c1cc(-c2ccccc2)on1 (stereo not drawn)', 'inactive');

Now turn to the next compound.
Please fill in: Potency reported for "COc1ccc2c(NC(=O)Nc3cccc(C(F)(F)F)n3)ccnc2c1" = inactive

====

Form field: Z-AUC (one value per entry).
# EXPERIMENTAL_PROTOCOL: qHTS drug screen for cell cycle checkpoint inhibitors in PARPi-resistant BRCA-mutant ovarian cancer cell lines. (AID 1963452)
# MEASUREMENT_CONDITIONS: PEO1/OlaR viability, CellTiter-Glo luminescence, 96 h; measured here: PEO1 parental Z-AUC; stronger effect = lower value

INSERT INTO assay_data (compound, value_type, obs_value) VALUES
  ('COc1cc2c(cc1OCCCN1CCCC1)N=C(N)C21CCC1', 'Z-AUC', -0.0136),
  ('COC1CCN(C(=O)c2cc(Cc3n[nH]c(=O)c4ccccc34)ccc2F)CC1', 'Z-AUC', -0.393),
  ('Cc1c(NC(=O)c2cc3c(s2)CCCC3)cccc1-c1cn(C)c(=O)c(Nc2ccc(C3C(=O)N(C)CCN3C)cc2)n1 (configuration not stated)', 'Z-AUC', 0.426),
  ('O=C(CCl)Nc1cccc(NC2=NS(=O)(=O)c3ccccc32)c1', 'Z-AUC', -0.67),
  ('NCCOc1cc(C(=O)Nc2cc(OCCN)c3ccccc3n2)nc(C(=O)Nc2cc(OCCN)c3ccccc3n2)c1', 'Z-AUC', -0.747);

Please fill in: Z-AUC reported for "Cn1ncc(Cl)c1-c1cc(C(=O)N[C@H](CN)Cc2cccc(F)c2)sc1Cl" = 0.0445

Please fill in: Z-AUC reported for "O=C(NCCCNc1nc(Nc2cccc(CN3CCOCC3)c2)ncc1C1CC1)C1CCC1" = -0.12

Please fill in: Z-AUC reported for "CCCC(CCC)C(=O)Nc1ccn([C@@H]2O[C@H](CO)[C@@H](O)C2(F)F)c(=O)n1" = -1.5

Please fill in: Z-AUC reported for COc1cc2c(cc1OC(C)C)[C@H](c1ccc(Cl)cc1)N(c1ccc(N(C)CC3CCC(N4CCN(C)C(=O)C4)CC3)cc1)C(=O)C2 (some centres not stated) = 0.366

Please fill in: Z-AUC reported for "Cc1cc(-c2nc3cc(F)ccc3s2)ccc1NC(=O)[C@@H](N)CCCCN" = -1.06

Values from PubChem BioAssay (NCATS)
